Test system: murine TTC39B mRNA
Assay: Dose-dependent antisense inhibition of murine TTC39B in mouse primary hepatocytes (Example 2)
Assay type: cell-based
Details: 25 nM, cytofectin, ~16 h
Oligonucleotides are written 5' to 3', each unit as a sugar letter and its base; * is a phosphorothioate linkage, no mark a phosphodiester; rarer units and linkages stand in square brackets, end groups in braces. Plain capitals give the bases only. e = 2'-O-(2-methoxyethyl) (MOE); [5mC] = 5-methylcytosine; d = 2'-deoxy (DNA)
Returns condition met if the recorded percent inhibition of TTC39B mRNA is greater than or equal to 40%, and condition not met otherwise.

>>> cat("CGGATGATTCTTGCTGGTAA (antisense e[5mC]*eG*eG*eA*eT*dG*dA*dT*dT*d[5mC]*dT*dT*dG*d[5mC]*dT*eG*eG*eT*eA*eA) [ISIS 447114]")
"condition met"
>>> cat("GGTGGAGTCTGGCCCTCAGC (antisense eG*eG*eT*eG*eG*dA*dG*dT*d[5mC]*dT*dG*dG*d[5mC]*d[5mC]*d[5mC]*eT*e[5mC]*eA*eG*e[5mC]) [ISIS 447142]")
"condition not met"
>>> cat("TCGAAATGTTTCTTGAGCCT (antisense eT*e[5mC]*eG*eA*eA*dA*dT*dG*dT*dT*dT*d[5mC]*dT*dT*dG*eA*eG*e[5mC]*e[5mC]*eT) [ISIS 447119]")
"condition not met"

Attention now shifts to the item below.
Q. Identify whether the reported percent inhibition of TTC39B mRNA of the following sequence is 40% or greater: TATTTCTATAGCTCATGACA (antisense eT*eA*eT*eT*eT*d[5mC]*dT*dA*dT*dA*dG*d[5mC]*dT*d[5mC]*dA*eT*eG*eA*e[5mC]*eA) [ISIS 447144]
A. condition not met
